TEST DETAILS: Microsomal stability, mouse microsomes
Type: in vitro ADME
APPLIED CONDITIONS: % remaining at 1 h
QUANTITY MEASURED: Microsome Stability (% remaining)

>>> print(df.to_string())
                              smiles_record  reported_result
0  Cc1noc(C)c1NC(=O)Nc1ccc2c(c1)C(=O)N([C@@H](C)CNCC(C)(C)C)C[C@@H](C)[C@H](CN(C)S(=O)(=O)c1ccc(F)cc1)OCCCC[C@H](C)O2                5
1  CNC[C@H](C)N1C[C@@H](C)[C@H](CN(C)S(=O)(=O)c2ccc(F)cc2)OCCCCOc2ccc(NC(=O)Nc3c(C)noc3C)cc2C1=O               65
2  CNC[C@H](C)N1C[C@@H](C)[C@H](CN(C)S(=O)(=O)c2ccc(F)cc2)OCCCC[C@H](C)Oc2ccc(NC(=O)Nc3c(C)noc3C)cc2C1=O               51
